Test system: HL-60
EXPERIMENTAL_DETAILS: Cytotoxicity against human HL60 cells assessed as reduction in cell viability incubated for 72 hrs by MTT assay
Assay type: functional, cell-based
STUDY_CONDITIONS: HL-60, 72 h
READOUT_KIND: pIC50
Lab note — pIC50 values are minus log10 of concentrations in M.

As a guide, the following entries are already answered.
• COc1ccc2c(c1)O[C@@H]1c3cc(OC)c(OC)cc3OC[C@H]21 = 6.70
• COc1ccc2c(c1)O[C@H]1c3cc(OC)c(OC)cc3OC[C@@H]21 = 4.08
• COc1ccc2c(c1)OC1c3cc(OC)c(OC)cc3OCC21 (racemic) = 6.12

Next up:
Query: Report pIC50 for COc1cccc2c1C(=O)c1c(O)c3c(c(O)c1C2=O)C[C@@](O)(C(=O)CO)C[C@@H]3O[C@H]1C[C@H](N)[C@H](O)[C@H](C)O1 please.
Reply: 7.40

Reference for the values: ChEMBL document CHEMBL4616708
